Biological target: TDP-43 (Homo sapiens, UniProt Q13148 1-414)
Sequence (Q13148 whole entry): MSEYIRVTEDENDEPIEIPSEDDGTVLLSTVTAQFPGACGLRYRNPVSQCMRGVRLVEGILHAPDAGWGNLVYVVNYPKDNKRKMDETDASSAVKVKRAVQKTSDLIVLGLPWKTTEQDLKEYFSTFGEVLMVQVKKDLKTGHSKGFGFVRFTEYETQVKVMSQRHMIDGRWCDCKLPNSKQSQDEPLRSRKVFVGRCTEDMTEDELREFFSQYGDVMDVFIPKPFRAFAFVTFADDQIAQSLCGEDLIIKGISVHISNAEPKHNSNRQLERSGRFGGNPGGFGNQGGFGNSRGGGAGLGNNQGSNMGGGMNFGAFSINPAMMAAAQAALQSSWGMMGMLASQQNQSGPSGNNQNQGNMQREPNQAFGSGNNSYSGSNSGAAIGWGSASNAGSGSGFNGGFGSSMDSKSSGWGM
Assay: RNA Bind-n-Seq with designed 260-mer pool; 25 mM Tris-HCl, 150 mM KCl, 3 mM MgCl2, BSA (printed 500 mg/mL), 20 units/mL SUPERase IN; pH not stated; 500 nM RNA pool, 1 h, 4 C; TDP-43 5, 50, 500 nM; high values mean tight binding
Details: protein: recombinant; tags: SBP (GST cleaved off with PreScission; pGEX-GST-SBP)
In all, about 9,900 sequences were measured (“r (bound/input frequency ratio)”: median about 0.7, highest 2% from about 6.5 on). For the sample, the highest values were picked, then their nearest neighbours and some sequences at random.
binding signal reference
Quantity measured: binding signal

Binder	Quantity measured	Assay result
ENSMUSG00000043670.233|Diras1 (ssRNA) RNA: GGGAGUUCUACAGUCCGACGAUCGCUUCGAUAUCCGCAUGCUAUGUCUGUAUGGCUCUGUGUUUUCAGGGGUGGGUGACACAGGCCUGUCUGAUGAGCACCAGGUCUGUUCCAGGCUGUGGCAAGCUGGCUCCUGGCUCAGAAGUGACAAAGCUGCAGUACAGAGGCCUCAGUGUGAGGUCAUCACCUCACAGUGGCUACAGACCAGGCUGUGGCCUGAGUGAGCUGGAACCUCUGGGGUGGGGACGAGAAAGAGAGAGGGAGAGAGAGGGGGGAGAGUGAGUGUGUGUGUGUGAAGGGGGAGCUCUUGCGGUCGCACUAGUGUGGAAUUCUCGGGUGUCAAGG	binding signal	7.61 R (bound/input frequency ratio)
ENSMUSG00000043670.73|Diras1 (ssRNA) RNA: GGGAGUUCUACAGUCCGACGAUCGCUUCGAUAUCCGCAUGCUAACACACUGGAGGUUUGAUCCCUGUGGAUCUGAAAACAGGGACCUGGCUAAGGAACUGCUCAUCCCAGUCAGGCCCAGAGAGGUUACCUUGCCUCUCCAUCUCUGUCCCUGUGUGCCCAGCCAUGCCCACUGUCCCUGUCCCUCACAUUCUAUCACUGUGACCUCUGGGGAGUGCCCAUUGACCUCAUCUUCCUUCACUAAUAUCUUAUUUCUUUCACCUGAUCCUGUCCUUUCCCCGUGACCUCUGACCUGUGGCCUUCCCUCUUGCGGUCGCACUAGUGUGGAAUUCUCGGGUGUCAAGG	binding signal	2.54 R (bound/input frequency ratio)
ENSMUSG00000043670.234|Diras1 (ssRNA) RNA: GGGAGUUCUACAGUCCGACGAUCGCUUCGAUAUCCGCAUGCUAUAUGGCUCUGUGUUUUCAGGGGUGGGUGACACAGGCCUGUCUGAUGAGCACCAGGUCUGUUCCAGGCUGUGGCAAGCUGGCUCCUGGCUCAGAAGUGACAAAGCUGCAGUACAGAGGCCUCAGUGUGAGGUCAUCACCUCACAGUGGCUACAGACCAGGCUGUGGCCUGAGUGAGCUGGAACCUCUGGGGUGGGGACGAGAAAGAGAGAGGGAGAGAGAGGGGGGAGAGUGAGUGUGUGUGUGUGAAGGGGGAGAGUGUGCUCUUGCGGUCGCACUAGUGUGGAAUUCUCGGGUGUCAAGG	binding signal	6.5 R (bound/input frequency ratio)
ENSMUSG00000043670.236|Diras1|111:115;221:233;244:250 (ssRNA) RNA: GGGAGUUCUACAGUCCGACGAUCGCUUCGAUAUCCGCAUGCUAUUUUCAGGGGUGGGUGACACAGGCCUGUCUGAUGAGCACCAGGUCUGUUCCAGGCUGUGGCAAGCUGGCUCCUGGCUCAGAAGUGACAAAGCUGCAGUACAGAGGCCUCACACACAGGUCAUCACCUCACAGUGGCUACAGACCAGGCUGUGGCCUGAGUGAGCUGGAACCUCUGGGGUGGGGACGAGAAAGAGAGAGGGAGAGAGAGGGGGGAGAGUGACACACACACACACAAGGGGGAGACACACACGGGGAAGAGUCUCUUGCGGUCGCACUAGUGUGGAAUUCUCGGGUGUCAAGG	binding signal	3.82 R (bound/input frequency ratio)
